- SYSTEM TESTED: recombinant active full-length human MEK7 (Homo sapiens)
- Construct: recombinant active full-length human MEK7 (Carna Biosciences); purchased Carna Biosciences
- PROTOCOL: ADP-Glo kinase activity assay, MEK7 with JNK1 substrate
- Type: biochemical
- MEASUREMENT PARAMETERS: MEK7 IC50, first experiment (IC50±SEM, n=3), 30 min preincubation; first value in brackets
OBSERVED PROPERTY: IC50 (nM)
# value in nM; strip the unit string

In: Missing value: IC50, recombinant active full-length human MEK7 (Homo sapiens), entry COc1ccccc1CNc1cc(Oc2cccc(NC(=O)CCl)c2)ncn1 . Fill in?
Out: 590

In: Give recombinant active full-length human MEK7 (Homo sapiens) IC50 for C=CC(=O)Nc1ccc(Oc2cc(NC)ncn2)cc1
Out: 7700

In: Report IC50 for COc1ccc(CNc2cc(Oc3cccc(NC(=O)CCl)c3)ncn2)cc1OC tested on recombinant active full-length human MEK7 (Homo sapiens).
Out: 390

In: # query: IC50 | item CN(Cc1ccccc1)c1cc(Oc2cccc(NC(=O)CCl)c2)ncn1 | system: recombinant active full-length human MEK7 (Homo sapiens)
Out: 140

In: Please provide the recorded IC50 for O=C(CCl)Nc1cccc(Oc2cc(NCc3ccccc3C(F)(F)F)ncn2)c1 , tested on recombinant active full-length human MEK7 (Homo sapiens).
Out: 1100

----------
- SYSTEM TESTED: recombinant active full-length human MEK7 (Homo sapiens, UniProt O14733)
- Construct: recombinant active full-length human MEK7 (Carna Biosciences); purchased Carna Biosciences
- PROTOCOL: ADP-Glo kinase activity assay, MEK7 with JNK1 substrate
- Type: biochemical
- MEASUREMENT PARAMETERS: read-out: MEK7 IC50, second experiment (IC50±SEM, n=3); 30 min preincubation; second value in brackets
Listing of recorded IC50 by entry.

# SMILES TEXT, IC50
data = [
    ("O=C(CCl)Nc1cccc(Oc2cc(NCc3ccc(F)c(F)c3)ncn2)c1", "0.042 µM"),
]

Here is the next item to consider.
In: For the record CNc1cc(Oc2cccc(NC(=O)CF)c2)ncn1 , what value of IC50 is listed for recombinant active full-length human MEK7 (Homo sapiens, UniProt O14733)?
Out: 7.8 µM

----------
- SYSTEM TESTED: recombinant active full-length human MEK7 (Homo sapiens)
- Construct: recombinant active full-length human MEK7 (Carna Biosciences); purchased Carna Biosciences
- PROTOCOL: ADP-Glo kinase activity assay, MEK7 with JNK1 substrate
- Format: biochemical
- MEASUREMENT PARAMETERS: MEK7 IC50 without preincubation, second experiment (n=3), without preincubation; second value in brackets
OBSERVED PROPERTY: IC50 (µM)
Value expressed in µM; do not type the unit.

In: IC50 of O=C(CCl)Nc1cccc(Oc2cc(NCc3ccccc3)ncn2)c1 [Compound 25] on recombinant active full-length human MEK7 (Homo sapiens)?
Out: 0.119

----------
- SYSTEM TESTED: recombinant active full-length human MEK7 (Homo sapiens, UniProt O14733)
- Construct: recombinant active full-length human MEK7 (Carna Biosciences); purchased Carna Biosciences
- PROTOCOL: ADP-Glo kinase activity assay, MEK7 with JNK1 substrate
- Format: biochemical
- MEASUREMENT PARAMETERS: read-out: MEK7 IC50, first experiment (IC50±SEM, n=3); 30 min preincubation; first value in brackets
OBSERVED PROPERTY: pIC50
// returns pIC50 (minus log10 of molar concentration), number only

In: Name the recorded pIC50 for O=C(CCl)Nc1cccc(Oc2cc(NCc3ccc(F)c(F)c3)ncn2)c1 .
Out: 7.38

----------
- SYSTEM TESTED: recombinant active full-length human MEK7 (Homo sapiens, UniProt O14733)
- Construct: recombinant active full-length human MEK7 (Carna Biosciences); purchased Carna Biosciences
- Sequence (O14733 1-419): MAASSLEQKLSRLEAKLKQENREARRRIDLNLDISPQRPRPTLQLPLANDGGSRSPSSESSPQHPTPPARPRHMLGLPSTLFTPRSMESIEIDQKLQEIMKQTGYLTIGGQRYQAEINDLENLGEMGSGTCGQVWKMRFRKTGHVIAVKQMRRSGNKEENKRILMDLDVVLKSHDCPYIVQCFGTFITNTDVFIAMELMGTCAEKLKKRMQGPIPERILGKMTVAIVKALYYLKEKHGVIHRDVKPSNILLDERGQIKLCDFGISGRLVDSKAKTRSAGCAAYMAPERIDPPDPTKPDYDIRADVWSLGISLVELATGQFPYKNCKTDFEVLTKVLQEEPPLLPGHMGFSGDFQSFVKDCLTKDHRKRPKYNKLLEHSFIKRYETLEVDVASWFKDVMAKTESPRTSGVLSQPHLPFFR
- PROTOCOL: ADP-Glo kinase activity assay, MEK7 with JNK1 substrate
- Type: biochemical
- MEASUREMENT PARAMETERS: MEK7 IC50, first experiment (IC50±SEM, n=3), 30 min preincubation; first value in brackets
- Protocol: Procedure for a 5 μL Kinase reaction using the ADP-Glo Kinase Assay Kit from Promega. Staurosporine was used as the positive control, and DMSO (vehicle) was employed as the negative control. Activity of recombinant active full-length human MEK7 (Carna Biosciences) was measured with recombinant full-length human substrate JNK1 (MAPK8). […] Luminescence was read on a Synergy Neo2 Plate Reader with filter cubes 3 and 114. […]
OBSERVED PROPERTY: pIC50
Lab note: report pIC50 as minus log10 of the concentration in molar units, number only.

Known results for compounds:
# SMILES TEXT, pIC50
data = [
    ("O=C(CCl)Nc1cccc(Oc2cc(NCc3cc(C(F)(F)F)cc(C(F)(F)F)c3)ncn2)c1", 5.40),
    ("O=C(CCl)Nc1cccc(Oc2cc(NCCc3ccc(Cl)cc3)ncn2)c1", 7.28),
    ("O=C(CCl)Nc1cccc(Oc2cc(NCc3ccccc3)ncn2)c1", 7.77),
    ("O=C(CCl)Nc1cccc(Oc2cc(NCCc3ccc4c(c3)OCO4)ncn2)c1", 5.85),
    ("O=C(CCl)Nc1cccc(Oc2cc(NCc3ccc(C(F)(F)F)cc3)ncn2)c1", 6.70),
    ("O=C(CCl)Nc1cccc(Oc2cc(NCc3ccc(F)c(C(F)(F)F)c3)ncn2)c1", 5.38),
    ("CNc1cc(Oc2cccc(NC(=O)CCl)c2)ncn1", 7.06),
    ("COc1ccc(CCNc2cc(Oc3cccc(NC(=O)CCl)c3)ncn2)cc1OC", 5.72),
]

Now examine the next entry.
In: I have this compound here, O=C(CCl)Nc1cccc(Oc2cc(NCc3c(F)ccc(F)c3F)ncn2)c1 , and I need its recorded pIC50.
Out: 6.06

----------
- SYSTEM TESTED: recombinant active full-length human MEK7 (Homo sapiens)
- Construct: recombinant active full-length human MEK7 (Carna Biosciences); purchased Carna Biosciences
- Sequence (O14733 1-419): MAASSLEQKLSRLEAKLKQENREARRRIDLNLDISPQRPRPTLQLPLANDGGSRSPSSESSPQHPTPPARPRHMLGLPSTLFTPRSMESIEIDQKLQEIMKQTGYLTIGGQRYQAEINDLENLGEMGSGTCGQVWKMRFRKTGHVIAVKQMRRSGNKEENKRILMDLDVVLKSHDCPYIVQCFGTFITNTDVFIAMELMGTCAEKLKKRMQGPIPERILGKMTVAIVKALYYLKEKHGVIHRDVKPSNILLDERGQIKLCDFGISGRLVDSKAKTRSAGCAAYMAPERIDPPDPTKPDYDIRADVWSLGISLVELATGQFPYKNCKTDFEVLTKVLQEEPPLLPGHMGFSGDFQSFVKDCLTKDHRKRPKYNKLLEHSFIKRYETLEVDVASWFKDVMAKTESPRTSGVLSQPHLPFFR
- PROTOCOL: ADP-Glo kinase activity assay, MEK7 with JNK1 substrate
- Assay type: biochemical
- MEASUREMENT PARAMETERS: ADP-Glo assay, comparison within the series
OBSERVED PROPERTY: in vitro activity against MAP2K7, in words

# MOLECULE, MEASURED RESULT
measured = [
    ("CNc1cc(Oc2cccc(NC(=O)C(C)(C)CCl)c2)ncn1", "less potent"),
    ("CC=CC(=O)Nc1cccc(Oc2cc(NC)ncn2)c1 (mixture of isomers)", "less potent"),
]

----------
- SYSTEM TESTED: recombinant active full-length human MEK7 (Homo sapiens)
- Construct: recombinant active full-length human MEK7 (Carna Biosciences); purchased Carna Biosciences
- PROTOCOL: ADP-Glo kinase activity assay, MEK7 with JNK1 substrate
- Type: biochemical
- MEASUREMENT PARAMETERS: MEK7 IC50, second experiment (IC50±SEM, n=3), 30 min preincubation; second value in brackets
Exam item: assign condition met to entries whose IC50 is below 200 nM and condition not met to entries at or above 200 nM. Note that a value of exactly 200 nM receives condition not met.

Illustrative cases are given below, each with its answer.
# SMILES TEXT, SYSTEM TESTED, ASSIGNED LABEL
data = [
    ("COc1ccc(CCNc2cc(Oc3cccc(NC(=O)CCl)c3)ncn2)cc1OC", "recombinant active full-length human MEK7 (Homo sapiens)", "condition not met"),
    ("CNc1cc(Oc2cccc(NC(=O)CCl)c2)ncn1", "recombinant active full-length human MEK7 (Homo sapiens)", "condition met"),
    ("O=C(CCl)Nc1cccc(Oc2cc(NCCc3ccc(Cl)cc3)ncn2)c1", "recombinant active full-length human MEK7 (Homo sapiens)", "condition met"),
    ("O=C(CCl)Nc1cccc(Oc2cc(NCCc3ccccc3)ncn2)c1", "recombinant active full-length human MEK7 (Homo sapiens)", "condition not met"),
    ("Cc1ccc(CNc2cc(Oc3cccc(NC(=O)CCl)c3)ncn2)cc1", "recombinant active full-length human MEK7 (Homo sapiens)", "condition not met"),
    ("O=C(CCl)Nc1cccc(Oc2cc(NCc3ccc(C(F)(F)F)cc3)ncn2)c1", "recombinant active full-length human MEK7 (Homo sapiens)", "condition not met"),
    ("O=C(CCl)Nc1cccc(Oc2cc(NCCc3c[nH]c4ccccc34)ncn2)c1", "recombinant active full-length human MEK7 (Homo sapiens)", "condition not met"),
    ("COc1ccc(CNc2cc(Oc3cccc(NC(=O)CCl)c3)ncn2)cc1OC", "recombinant active full-length human MEK7 (Homo sapiens)", "condition met"),
    ("O=C(CCl)Nc1cccc(Oc2cc(NCCc3ccc4c(c3)OCO4)ncn2)c1", "recombinant active full-length human MEK7 (Homo sapiens)", "condition not met"),
    ("CN(Cc1ccccc1)c1cc(Oc2cccc(NC(=O)CCl)c2)ncn1", "recombinant active full-length human MEK7 (Homo sapiens)", "condition met"),
]

In: IC50 under 200 nM? Item: O=C(CCl)Nc1cccc(Oc2cc(NCc3cc(C(F)(F)F)cc(C(F)(F)F)c3)ncn2)c1
Out: condition not met

In: Determine whether this molecule shows IC50 lower than 200 nM (ties excluded): O=C(CCl)Nc1cccc(Oc2cc(NCc3c(F)ccc(F)c3F)ncn2)c1
Out: condition met

In: Is IC50 of C=CC(=O)Nc1cccc(Oc2cc(NC)ncn2)c1 strictly below 200 nM?
Out: condition not met

In: Item COc1ccccc1CNc1cc(Oc2cccc(NC(=O)CCl)c2)ncn1 : IC50 beneath 200 nM, strictly?
Out: condition not met

In: Does this molecule meet the criterion IC50 < 200 nM? O=C(CCl)Nc1cccc(Oc2cc(NCc3ccc(F)c(C(F)(F)F)c3)ncn2)c1
Out: condition not met

In: Consider the molecule O=C(CCl)Nc1cccc(Oc2cc(NC3CCCC3)ncn2)c1 . Is its IC50 strictly less than 200 nM?
Out: condition met

In: I wonder whether CNc1cc(Oc2ccc(NC(=O)CCl)cc2)ncn1 has IC50 below 200 nM. Can you tell?
Out: condition not met

In: Threshold test, IC50 < 200 nM: O=C(CCl)Nc1cccc(Oc2cc(NCc3ccc(F)cc3F)ncn2)c1
Out: condition not met

In: Item C=CC(=O)Nc1ccc(Oc2cc(NC)ncn2)cc1 : IC50 beneath 200 nM, strictly?
Out: condition not met
